EXPERIMENTAL_TARGET: Potassium voltage-gated channel subfamily KQT member 2 (Homo sapiens, UniProt O43526)
Sequence (O43526 whole entry): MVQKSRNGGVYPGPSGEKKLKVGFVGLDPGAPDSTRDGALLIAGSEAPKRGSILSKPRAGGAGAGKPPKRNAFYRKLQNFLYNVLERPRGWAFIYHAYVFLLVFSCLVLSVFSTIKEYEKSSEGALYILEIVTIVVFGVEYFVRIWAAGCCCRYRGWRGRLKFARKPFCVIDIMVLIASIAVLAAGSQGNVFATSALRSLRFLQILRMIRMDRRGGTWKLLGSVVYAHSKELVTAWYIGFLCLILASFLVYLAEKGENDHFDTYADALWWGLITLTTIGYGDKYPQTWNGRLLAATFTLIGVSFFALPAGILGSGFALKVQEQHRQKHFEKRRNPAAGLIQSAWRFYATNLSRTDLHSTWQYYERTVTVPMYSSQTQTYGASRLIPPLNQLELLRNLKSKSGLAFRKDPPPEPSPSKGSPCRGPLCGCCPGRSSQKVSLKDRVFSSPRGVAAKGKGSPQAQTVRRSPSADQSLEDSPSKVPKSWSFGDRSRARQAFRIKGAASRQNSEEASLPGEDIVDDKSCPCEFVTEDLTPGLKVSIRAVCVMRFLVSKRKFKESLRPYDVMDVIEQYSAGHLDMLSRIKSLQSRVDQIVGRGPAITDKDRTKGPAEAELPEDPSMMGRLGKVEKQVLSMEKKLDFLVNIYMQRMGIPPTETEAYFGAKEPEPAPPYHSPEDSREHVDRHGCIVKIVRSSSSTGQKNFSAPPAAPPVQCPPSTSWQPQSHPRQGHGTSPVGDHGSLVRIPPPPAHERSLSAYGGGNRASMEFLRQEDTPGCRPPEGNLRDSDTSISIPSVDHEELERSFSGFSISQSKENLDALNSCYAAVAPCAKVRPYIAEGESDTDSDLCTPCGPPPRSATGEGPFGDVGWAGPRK
PROCEDURE_TEXT: Activation of KCNQ2 channel expressed in CHO cells assessed as depolarization-induced […] after 3 mins by patch clamp assay relative to control
Type: cell-based
ENDPOINT_NAME: EC50

Exercise: Consider the compound shown here: "COc1ccc(-c2csc(NC(=O)[C@H]3CCCCN3S(=O)(=O)c3ccc(C)cc3)n2)cc1" What is its recorded EC50?
Solution: > 30 µM

Taken from ChEMBL document CHEMBL2069205.
